MEASUREMENT NOTES: Toxicokinetics, 14-day intranasal study in dogs (Study 62959)
Assay type: in vivo
EXPERIMENTAL CONDITIONS: female, beagle, dog, plasma, inhaled or intranasal, 0.4 mg/kg/day, Day 14, Female, read-out: t1/2 (converted)
ATTRIBUTE MEASURED: half-life (min)
Give just the number in min; leave the unit off.

// half-life value for COc1ccc2[nH]cc(CCN(C)C)c2c1 [BPL-5MEO, 5-methoxy-N,N-dimethyltryptamine] : 42.4

---

MEASUREMENT NOTES: Toxicokinetics, 14-day intranasal study in rats (Study 700041)
Type: in vivo
EXPERIMENTAL CONDITIONS: female, Sprague Dawley, rat, plasma, inhaled or intranasal, 75 mg/kg/day, Day 1, Female, read-out: t1/2 (converted)
ATTRIBUTE MEASURED: half-life (min)
Lab book: enter the figure in min, no units written.

According to the records, this molecule `COc1ccc2[nH]cc(CCN(C)C)c2c1` displays half-life of 9.36

Where these numbers come from: patent US11518742B2
